- Organism: Canis familiaris
- assay_summary: Tested for the pharmacokinetic data, time required to reach Cmax (Tmax) in dog
- Assay type: ADME, organism-based, Canis lupus familiaris
- experimental_setup: in vivo
metric: T max (min)

compound	T max (min)
C[C@@H]1CC[C@@H](O)C1NC(=O)[C@H](Cc1ccccc1)C[C@H](O)CN1CCN(Cc2cccnc2)C[C@H]1C(=O)NC(C)(C)C (single isomer, unassigned)	40
CC(C)(C)NC(=O)[C@@H]1CN(Cc2cccnc2)CCN1C[C@@H](O)C[C@@H](Cc1cccnc1)C(=O)NC1c2cccc(F)c2C[C@H]1O (single isomer, unassigned)	40
CC(C)(C)NC(=O)[C@@H]1CN(Cc2cccnc2)CCN1C[C@@H](O)C[C@@H](Cc1cccnc1)C(=O)NC1c2cccc(Cl)c2C[C@H]1O (single isomer, unassigned)	40
C[C@@H]1CC[C@@H](O)C1NC(=O)[C@H](Cc1cccnc1)C[C@H](O)CN1CCN(Cc2cccnc2)C[C@H]1C(=O)NC(C)(C)C (single isomer, unassigned)	40
CC(C)(C)NC(=O)[C@@H]1CN(Cc2cccnc2)CCN1C[C@@H](O)C[C@@H](CC1CCCCC1)C(=O)NC1c2ccccc2C[C@H]1O (single isomer, unassigned)	40

====

- assay_summary: Tested for the pharmacokinetic data, time required to reach Cmax (Tmax) in dog at dosage of 10 mpk
- Type: ADME, organism-based, Canis lupus familiaris
- experimental_setup: in vivo, 10 mg/kg
metric: Tmax (min)

compound	Tmax (min)
C[C@@H]1CC[C@@H](O)C1NC(=O)[C@H](CC1CCCCC1)C[C@H](O)CN1CCN(Cc2cccnc2)C[C@H]1C(=O)NC(C)(C)C (single isomer, unassigned)	25
C[C@@H]1CC[C@@H](O)C1NC(=O)[C@H](CC1CC1)C[C@H](O)CN1CCN(Cc2cccnc2)C[C@H]1C(=O)NC(C)(C)C (single isomer, unassigned)	45
CC(C)(C)NC(=O)[C@@H]1CN(Cc2cccnc2)CCN1C[C@@H](O)C[C@@H](CC1CCCCC1)C(=O)NC1c2cccc(Cl)c2C[C@H]1O (single isomer, unassigned)	35

====

- assay_summary: Tested for the pharmacokinetic data, area under the curve of concentration versus time in dog
- Assay type: ADME, organism-based, Canis lupus familiaris
- experimental_setup: in vivo
metric: AUC (µM·h)

// worked examples, AUC included
compound	AUC, µM·h
CC(C)(C)NC(=O)[C@@H]1CN(Cc2cccnc2)CCN1C[C@@H](O)C[C@@H](Cc1ccccc1)C(=O)NC1c2cccc(F)c2C[C@H]1O (single isomer, unassigned)	0.258
CC(C)(C)NC(=O)[C@@H]1CN(Cc2cccnc2)CCN1C[C@@H](O)C[C@@H](Cc1ccccc1)C(=O)NC1c2ccccc2C[C@H]1O.O (single isomer, unassigned)	0.307

P = C[C@@H]1CC[C@@H](O)C1NC(=O)[C@H](Cc1cccnc1)C[C@H](O)CN1CCN(Cc2cccnc2)C[C@H]1C(=O)NC(C)(C)C (single isomer, unassigned)
Q = C[C@@H]1CC[C@@H](O)C1NC(=O)[C@H](CC1CC1)C[C@H](O)CN1CCN(Cc2cccnc2)C[C@H]1C(=O)NC(C)(C)C (single isomer, unassigned)
R = CC(C)(C)NC(=O)[C@@H]1CN(Cc2cccnc2)CCN1C[C@@H](O)C[C@@H](Cc1ccc(F)cc1)C(=O)N[C@@H]1c2cccc(F)c2C[C@H]1O
Asked: Rank ascending by AUC. Output the labels ranked as instructed.
Given back: R, P, Q

====

Reported IC50 values are given for each entry in this list.
- tested_target: Human immunodeficiency virus type 1 protease (Human immunodeficiency virus 1)
- assay_summary: In vitro inhibitory activity against mutant HIV-1 (A-44)protease
The answer is to be given in nM; state only the numeric part.

// worked examples, IC50 included
compound	metric	output_unit	assay_result
CC(C)(C)NC(=O)[C@@H]1CN(Cc2nc3ccccc3s2)CCN1C[C@@H](O)C[C@@H](Cc1ccccc1)C(=O)N[C@@H]1c2ccccc2C[C@H]1O	IC50	nM	71.7
CC(C)(C)NC(=O)[C@@H]1CN(Cc2noc3ccccc23)CCN1C[C@@H](O)C[C@@H](Cc1ccccc1)C(=O)NC1c2ccccc2C[C@H]1O (some centres undefined)	IC50	nM	71.5
CC(C)(C)NC(=O)[C@@H]1CN(Cc2ncc(-c3ccccc3)s2)CCN1C[C@@H](O)C[C@@H](Cc1ccccc1)C(=O)N[C@@H]1c2ccccc2C[C@H]1O	IC50	nM	2
Cn1nc(C(F)(F)F)cc1-c1ccc(CN2CCN(C[C@@H](O)C[C@@H](Cc3ccccc3)C(=O)N[C@@H]3c4ccccc4C[C@H]3O)[C@H](C(=O)NC(C)(C)C)C2)s1	IC50	nM	0.6
CC(C)(C)NC(=O)[C@@H]1CN(CC2(c3ccccc3)CC2)CCN1C[C@@H](O)C[C@@H](Cc1ccccc1)C(=O)N[C@@H]1c2ccccc2C[C@H]1O	IC50	nM	257
CC(C)(C)NC(=O)[C@@H]1CN(Cc2cccc(C(C)(C)NC(=O)OC(C)(C)C)c2)CCN1C[C@@H](O)C[C@@H](Cc1ccccc1)C(=O)N[C@@H]1c2ccccc2C[C@H]1O	IC50	nM	392

Asked: Give measured IC50 for "CC(C)(C)NC(=O)[C@@H]1CN(Cc2cc3cc(F)ccc3o2)CCN1C[C@@H](O)C[C@@H](Cc1ccccc1)C(=O)N[C@@H]1c2ccccc2C[C@H]1O" (Human immunodeficiency virus type 1 protease (Human immunodeficiency virus 1)).
Given back: 46

Asked: Give measured IC50 for "CC(C)(C)NC(=O)[C@@H]1CN(Cc2nc3ccccc3o2)CCN1C[C@@H](O)C[C@@H](Cc1ccccc1)C(=O)N[C@@H]1c2ccccc2C[C@H]1O" (Human immunodeficiency virus type 1 protease (Human immunodeficiency virus 1)).
Given back: 66

Asked: Give measured IC50 for CC(C)(C)NC(=O)[C@@H]1CN(Cc2cc3ccccc3o2)CCN1C[C@@H](O)C[C@@H](Cc1ccccc1)C(=O)NC1c2ccccc2C[C@H]1O (some centres undefined) (Human immunodeficiency virus type 1 protease (Human immunodeficiency virus 1)).
Given back: 24

Asked: Give measured IC50 for "CC(C)(C)NC(=O)[C@@H]1CN(CCCC(F)(F)F)CCN1C[C@@H](O)C[C@@H](Cc1ccccc1)C(=O)N[C@@H]1c2ccccc2C[C@H]1O" (Human immunodeficiency virus type 1 protease (Human immunodeficiency virus 1)).
Given back: 568

====

- assay_summary: Tested for the pharmacokinetic data, maximum concentration (Cmax) in dog
- Assay type: ADME, organism-based, Canis lupus familiaris
- experimental_setup: in vivo
metric: Cmax (nM)

// worked examples, Cmax included
compound	output_unit	Cmax
CC(C)(C)NC(=O)[C@@H]1CN(Cc2cccnc2)CCN1C[C@@H](O)C[C@@H](CC1CCCCC1)C(=O)NC1c2ccccc2C[C@H]1O (single isomer, unassigned)	nM	232
CC(C)(C)NC(=O)[C@@H]1CN(Cc2cccnc2)CCN1C[C@@H](O)C[C@@H](CC1CC1)C(=O)NC1c2ccccc2C[C@H]1O (single isomer, unassigned)	nM	651

a = C[C@@H]1CC[C@@H](O)C1NC(=O)[C@H](CC1CCCCC1)C[C@H](O)CN1CCN(Cc2cccnc2)C[C@H]1C(=O)NC(C)(C)C (single isomer, unassigned)
b = CC(C)(C)NC(=O)[C@@H]1CN(Cc2cccnc2)CCN1C[C@@H](O)C[C@@H](Cc1ccc(F)cc1)C(=O)NC1c2cccc(Cl)c2C[C@H]1O (single isomer, unassigned)
c = CC(C)(C)NC(=O)[C@@H]1CN(Cc2cccnc2)CCN1C[C@@H](O)C[C@@H](Cc1cccnc1)C(=O)NC1c2cccc(F)c2C[C@H]1O (single isomer, unassigned)
Asked: Rank ascending by Cmax. Output the labels ranked as instructed.
Given back: b, c, a

====

- assay_summary: Tested for the pharmacokinetic data, area under the curve of concentration versus time in dog
- Assay type: ADME, organism-based, Canis lupus familiaris
- experimental_setup: in vivo
metric: AUC (µM·h)

compound	metric	assay_result
CC(C)(C)NC(=O)[C@@H]1CN(Cc2cccnc2)CCN1C[C@@H](O)C[C@@H](Cc1ccc(F)cc1)C(=O)NC1c2ccccc2C[C@H]1O (single isomer, unassigned)	AUC	0.258
CC(C)(C)NC(=O)[C@@H]1CN(Cc2cccnc2)CCN1C[C@@H](O)C[C@@H](Cc1cccnc1)C(=O)NC1c2cccc(F)c2C[C@H]1O (single isomer, unassigned)	AUC	0.245
CC(C)(C)NC(=O)[C@@H]1CN(Cc2cccnc2)CCN1C[C@@H](O)C[C@@H](Cc1ccccc1)C(=O)NC1c2cccc(Cl)c2C[C@H]1O (single isomer, unassigned)	AUC	0.256
CC(C)(C)NC(=O)[C@@H]1CN(Cc2cccnc2)CCN1C[C@@H](O)C[C@@H](CC1CCCCC1)C(=O)NC1c2cccc(Cl)c2C[C@H]1O (single isomer, unassigned)	AUC	0.235

====

- tested_target: Human immunodeficiency virus type 1 protease (Human immunodeficiency virus 1, UniProt Q72874)
- assay_summary: In vitro inhibitory activity against wild type HIV-1 protease
metric: pIC50
Note: pIC50 values are expressed as the negative base-10 logarithm of concentration in M.

// worked examples, pIC50 included
molecule	pIC50
CC(C)(C)NC(=O)[C@@H]1CN(Cc2nc3ccccc3o2)CCN1C[C@@H](O)C[C@@H](Cc1ccccc1)C(=O)N[C@@H]1c2ccccc2C[C@H]1O	8.92
Cn1cc(CN2CCN(C[C@@H](O)C[C@@H](Cc3ccccc3)C(=O)N[C@@H]3c4ccccc4C[C@H]3O)[C@H](C(=O)NC(C)(C)C)C2)ccc1=O	8.66
CC1=CSC2C(CN3CCN(C[C@@H](O)C[C@@H](Cc4ccccc4)C(=O)N[C@@H]4c5ccccc5C[C@H]4O)[C@H](C(=O)NC(C)(C)C)C3)N=CN12 (some centres undefined)	8.17
CC(C)(C)NC(=O)[C@@H]1CN(Cc2noc3ccccc23)CCN1C[C@@H](O)C[C@@H](Cc1ccccc1)C(=O)NC1c2ccccc2C[C@H]1O (some centres undefined)	8.93
CC(C)(C)NC(=O)[C@@H]1CN(Cc2cc3cc(F)ccc3o2)CCN1C[C@@H](O)C[C@@H](Cc1ccccc1)C(=O)N[C@@H]1c2ccccc2C[C@H]1O	9.03

Asked: Answer with the recorded pIC50 for the molecule listed here: "CC(C)(C)NC(=O)[C@@H]1CN(CCCC(F)(F)F)CCN1C[C@@H](O)C[C@@H](Cc1ccccc1)C(=O)N[C@@H]1c2ccccc2C[C@H]1O"
Given back: 7.82

Asked: Answer with the recorded pIC50 for the molecule listed here: "CC(C)(C)NC(=O)[C@@H]1CN(Cc2ncc(-c3ccccc3)s2)CCN1C[C@@H](O)C[C@@H](Cc1ccccc1)C(=O)N[C@@H]1c2ccccc2C[C@H]1O"
Given back: 9.59

Asked: Answer with the recorded pIC50 for the molecule listed here: "CC(C)(C)NC(=O)[C@@H]1CN(CC2(c3ccccc3)CC2)CCN1C[C@@H](O)C[C@@H](Cc1ccccc1)C(=O)N[C@@H]1c2ccccc2C[C@H]1O"
Given back: 8.11

Asked: Answer with the recorded pIC50 for the molecule listed here: "CN(C)c1ccc2ccc(S(=O)(=O)N3CCN(C[C@@H](O)C[C@@H](Cc4ccccc4)C(=O)N[C@@H]4c5ccccc5C[C@H]4O)[C@H](C(=O)NC(C)(C)C)C3)cc2n1"
Given back: 9.66

Asked: Answer with the recorded pIC50 for the molecule listed here: CC(C)(C)NC(=O)[C@@H]1CN(Cc2cc3ccccc3o2)CCN1C[C@@H](O)C[C@@H](Cc1ccccc1)C(=O)NC1c2ccccc2C[C@H]1O (some centres undefined)
Given back: 9.31
